Data origin: patent US20220380368A1

experiment: Mouse PK studies after oral and IV dosing; assay type: in vivo; details: in vivo, po, 5 mg/kg
observation-type: Tmax (h)
Expressed in h, but write only the number.

Q) Consider the compound shown here: C[C@H]1CC2(CCN(c3ccc(C(=O)N4CCC(N5Cc6cc7c(cc6C5)C(=O)N(C5CCC(=O)NC5=O)C7=O)CC4)cc3)CC2)CN1c1ccc(C#N)c(Cl)c1 (stereo partly shown) What is its recorded Tmax?
A) 2

###

test: Mouse PK studies after oral and IV dosing; format: in vivo; conditions: in vivo, po, 3 mg/kg, PO, dose 3 mg/kg, read-out: PO AUC(0 − t)
Give measured AUC(0-t) for each item. Keep answers brief.
Write the answer as a number in ng·h/mL, unit excluded.

Q) Please look up its AUC(0-t): C[C@H]1CC2(CCN(c3ccc(C(=O)N4CCC(CN5CCN(c6ccc7c(c6)C(=O)N(C6CCC(=O)NC6=O)C7=O)CC5)CC4)cc3)CC2)CN1c1ccc(C#N)c(Cl)c1 (some centres unmarked)
A) 6570

Q) Recorded AUC(0-t) for C[C@H]1CC2(CCN(c3cnc(C(=O)N4CCC(N5CCN(c6ccc7c(c6)C(=O)N(C6CCC(=O)NC6=O)C7=O)CC5)CC4)cn3)CC2)CN1c1ccc(C#N)c(Cl)c1 (some centres unmarked) , please?
A) 760

Q) Given the compound C[C@H]1CC2(CCN(c3cnc(C(=O)N4CCC(CN5Cc6cc7c(cc6C5)C(=O)N(C5CCC(=O)NC5=O)C7=O)CC4)cn3)CC2)CN1c1ccc(C#N)c(Cl)c1 (some centres unmarked) , what is its reported AUC(0-t)?
A) 3050

Q) Recorded AUC(0-t) of C[C@H]1CC2(CCN(c3ccc(C(=O)N4CCN(C5CN(c6ccc7c(c6)C(=O)N(C6CCC(=O)NC6=O)C7=O)C5)CC4)cc3F)CC2)CN1c1ccc(C#N)c(Cl)c1 (some centres unmarked) , please.
A) 6270

Q) For C[C@H]1CC2(CCN(c3ccc(C(=O)N4CCN(C5CCN(c6cc7c(cc6F)C(=O)N(C6CCC(=O)NC6=O)C7=O)CC5)CC4)cc3)CC2)CN1c1ccc(C#N)c(Cl)c1 (some centres unmarked) , what is its reported AUC(0-t)?
A) 14500

Q) Name the reported AUC(0-t) value associated with the compound C[C@H]1CC2(CCN(c3ccc(C(=O)N4CCN(CC5CN(c6ccc7c(c6)C(=O)N(C6CCC(=O)NC6=O)C7=O)C5)CC4)c(F)c3)CC2)CN1c1ccc(C#N)c(Cl)c1 (some centres unmarked)
A) 6920

Q) What does the record list as AUC(0-t) for C[C@H]1CC2(CCN(c3ccc(C(=O)N4CCN(C5CN(c6ccc7c(c6)CN(C6CCC(=O)NC6=O)C7=O)C5)CC4)cc3)CC2)CN1c1ccc(C#N)c(Cl)c1 (some centres unmarked) ?
A) 2950

Q) I am curious: what AUC(0-t) value has been reported for C[C@H]1CC2(CCN(c3ccc(C(=O)N4CCN(CC5CN(c6ccc7c(c6)C(=O)N(C6CCC(=O)NC6=O)C7=O)C5)CC4)cc3F)CC2)CN1c1ccc(C#N)c(Cl)c1 (some centres unmarked) ?
A) 1680

Q) Suppose we examine the compound C[C@H]1CC2(CCN(c3ccc(C(=O)N4CCC(CN5Cc6cc7c(cc6C5)C(=O)N(C5CCC(=O)NC5=O)C7=O)CC4)nn3)CC2)CN1c1ccc(C#N)c(Cl)c1 (some centres unmarked) ; what AUC(0-t) value has been reported?
A) 6550

Q) Find the recorded AUC(0-t) belonging to C[C@H]1CC2(CCN(c3ccc(C(=O)N4CCN(CC5CN(c6cc7c(cc6F)C(=O)N(C6CCC(=O)NC6=O)C7=O)C5)CC4)nn3)CC2)CN1c1ccc(C#N)c(Cl)c1 (some centres unmarked) and report it.
A) 5150

Q) Any idea what AUC(0-t) was measured for C[C@H]1CC2(CCN(c3cnc(C(=O)N4CCC(CN5CCN(c6cc7c(cc6F)C(=O)N(C6CCC(=O)NC6=O)C7=O)CC5)CC4)cn3)CC2)CN1c1ccc(C#N)c(Cl)c1 (some centres unmarked) ?
A) 627
